Measured values drawn from paper PMC5493754 for this set.

Molecular target: T1, Myosin 7b MF2 (human, UniProt Q6PIF6 1605-2116)
T1 construct: also called M7b MF2; Myo7b MF2; source: E. coli (BL21-AI, BL21 (DE3) Rosetta or BL21-Gold (DE3)), purified (Histrap, CaptoQ, gel filtration)
T1 sequence (looked up): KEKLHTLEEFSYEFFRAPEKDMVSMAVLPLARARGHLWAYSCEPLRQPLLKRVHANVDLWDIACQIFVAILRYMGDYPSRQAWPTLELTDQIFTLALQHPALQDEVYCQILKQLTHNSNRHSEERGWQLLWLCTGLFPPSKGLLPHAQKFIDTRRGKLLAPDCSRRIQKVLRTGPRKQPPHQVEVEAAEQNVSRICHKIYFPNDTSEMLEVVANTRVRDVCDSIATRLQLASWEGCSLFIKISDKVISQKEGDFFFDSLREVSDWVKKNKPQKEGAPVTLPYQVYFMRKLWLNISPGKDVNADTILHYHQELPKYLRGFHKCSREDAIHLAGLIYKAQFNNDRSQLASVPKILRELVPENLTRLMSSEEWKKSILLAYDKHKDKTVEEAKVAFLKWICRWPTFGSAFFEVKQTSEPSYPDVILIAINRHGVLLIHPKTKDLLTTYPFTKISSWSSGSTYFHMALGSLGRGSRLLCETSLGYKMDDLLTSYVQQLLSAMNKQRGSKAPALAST
Test: MST; YFP-fused partner constant at 100 nM, non-fluorescent protein titrated (16 two-fold dilutions); 20 mM Hepes pH 7.0, 100 mM NaCl, 1 mM EGTA, 0.5 mM TCEP, 0.05% Tween 20; Monolith NT.115
Settings: both partners purified
pKd: −log10 of the molar value.
Recorded Endpoint: pKd

>>> observed("YFP-Harmonin-a PDZ3c I476W (domain or fragment, human, UniProt Q9Y6N9-1 428-552, looked up, Harmonin-a1 (USH1C), human, residues 428-552 of UniProt Q9Y6N9-1; also called ^YFPPDZ3c (isoA) I476W; source: E. coli BL21 (DE3) Rosetta, purified similarly as wild type) QDFRKYEEGFDPYSMFTPEQIMGKDVRLLRIKKEGSLDLALEGGVDSPWGKVVVSAVYERGAAERHGGIVKGDEIMAINGKIVTDYTLAEAEAALQKAWNQGGDWIDLVVAVCPPKEYDDELTFF")
4.74
>>> observed("YFP-Harmonin-a PDZ3c E469A-I476W (domain or fragment, human, UniProt Q9Y6N9-1 428-552, looked up, Harmonin-a1 (USH1C), human, residues 428-552 of UniProt Q9Y6N9-1; also called ^YFPPDZ3c (isoA) E469A-I476W; source: E. coli BL21 (DE3) Rosetta, purified similarly as wild type) QDFRKYEEGFDPYSMFTPEQIMGKDVRLLRIKKEGSLDLALAGGVDSPWGKVVVSAVYERGAAERHGGIVKGDEIMAINGKIVTDYTLAEAEAALQKAWNQGGDWIDLVVAVCPPKEYDDELTFF")
4.42
>>> observed("YFP-Harmonin-a PDZ3c (domain or fragment, human, UniProt Q9Y6N9-1 428-552, looked up, Harmonin-a1 (USH1C), human, residues 428-552 of UniProt Q9Y6N9-1; also called ^YFPPDZ3c (isoA); source: E. coli BL21 (DE3) Rosetta, purified (Glutathione Sepharose 4B, size-exclusion chromatography)) QDFRKYEEGFDPYSMFTPEQIMGKDVRLLRIKKEGSLDLALEGGVDSPIGKVVVSAVYERGAAERHGGIVKGDEIMAINGKIVTDYTLAEAEAALQKAWNQGGDWIDLVVAVCPPKEYDDELTFF")
5.72
>>> observed("YFP-Harmonin-a PDZ3c E469A (domain or fragment, human, UniProt Q9Y6N9-1 428-552, looked up, Harmonin-a1 (USH1C), human, residues 428-552 of UniProt Q9Y6N9-1; also called ^YFPPDZ3c (isoA) E469A; PDZ3 E469A; source: E. coli BL21 (DE3) Rosetta, purified similarly as wild type) QDFRKYEEGFDPYSMFTPEQIMGKDVRLLRIKKEGSLDLALAGGVDSPIGKVVVSAVYERGAAERHGGIVKGDEIMAINGKIVTDYTLAEAEAALQKAWNQGGDWIDLVVAVCPPKEYDDELTFF")
5.21
